The reported numbers originate from the supplement of paper PMC11208160.

# test_method_notes: recombinant barcode read abundance after kanamycin selection (control-corrected) (log10(CPM+1)); higher = more efficient recombination; sequences stand for … in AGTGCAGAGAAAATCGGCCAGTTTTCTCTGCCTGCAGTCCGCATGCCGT…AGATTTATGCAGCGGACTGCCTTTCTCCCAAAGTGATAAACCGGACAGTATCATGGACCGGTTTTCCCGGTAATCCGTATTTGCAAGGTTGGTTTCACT; site = the 11-nt target
Each entry gets no (0) if its recombinant barcode read abundance (log10) stays under 0.2, and yes (1) if its recombinant barcode read abundance (log10) is 0.2 or above.

sequence_input: CTACAAGCTTGGGTTCTAACCTGTTGCCT (site CTTCAAGCTAG)
assigned_category: no (0)

sequence_input: ACCTGTACTTGGGTTCTAACCTGTTGCCT (site ACCTGTACTAG)
assigned_category: no (0)

sequence_input: CAATCCTCTTGGGTTCTAACCTGTTGCCT (site AAATCCTCTAG)
assigned_category: no (0)

sequence_input: TAGTCCTCTTGGGTTCTAACCTGTTGCTA (site TAGTCCTCTTA)
assigned_category: yes (1)

sequence_input: ATTCAAACTTGGGTTCTAACCTGTTGCCT (site GTTCAAACTAT)
assigned_category: no (0)

sequence_input: CACACCACTTGGGTTCTAACCTGTTGCCT (site CACACCACTAG)
assigned_category: yes (1)

sequence_input: TCATTCGCTTGGGTTCTAACCTGTTGCCT (site TCATTCGCTAG)
assigned_category: yes (1)

sequence_input: GTCGGCACTTGGGTTCTAACCTGTTGCCT (site GTCGGAACTAG)
assigned_category: yes (1)

sequence_input: ACCTGACCTTGGGTTCTAACCTGTTGCGG (site ACCTGACCTCC)
assigned_category: yes (1)

sequence_input: TAATCGTCTTGGGTTCTAACCTGTTGCCT (site TAATCGACTAG)
assigned_category: no (0)

sequence_input: TAGTTGACTTGGGTTCTAACCTGTTGCCA (site TAGTTAACTTG)
assigned_category: yes (1)

sequence_input: TCTCAACCTTGGGTTCTAACCTGTTGCCT (site TCTAAACCTAG)
assigned_category: no (0)

sequence_input: TGTCTATCTTGGGTTCTAACCTGTTGCCT (site TGTCTATCTAG)
assigned_category: yes (1)

sequence_input: GACACAGCTTGGGTTCTAACCTGTTGCCT (site GATACAGCTAG)
assigned_category: yes (1)

sequence_input: GCTTCGGCTTGGGTTCTAACCTGTTGCCT (site GCATCGGCTAG)
assigned_category: no (0)

sequence_input: AAGCCCACTTGGGTTCTAACCTGTTGCGG (site CGCGTTGCTAG)
assigned_category: yes (1)

sequence_input: CTAGGAGCTTGGGTTCTAACCTGTTGCTC (site CTAGGAGCTTA)
assigned_category: no (0)

sequence_input: TCACCGCCTTGGGTTCTAACCTGTTGCCT (site ACACCGCCTAG)
assigned_category: yes (1)

sequence_input: CTGGTGTCTTGGGTTCTAACCTGTTGCCT (site CTGGAGTCTAG)
assigned_category: no (0)

sequence_input: AAAGGTTCTTGGGTTCTAACCTGTTGCCT (site AGAGGTTCTAG)
assigned_category: no (0)

sequence_input: CGCTCCTCTTGGGTTCTAACCTGTTGCCT (site AGCTCCTCTAG)
assigned_category: no (0)

sequence_input: AGTATCGCTTGGGTTCTAACCTGTTGCGG (site AGTTTCGCTCC)
assigned_category: yes (1)

sequence_input: TCCGAGACTTGGGTTCTAACCTGTTGCCA (site TCCGAGACTGG)
assigned_category: no (0)

sequence_input: GAACGGGCTTGGGTTCTAACCTGTTGCGG (site GGACGGGCTCT)
assigned_category: no (0)

sequence_input: CGGTCATCTTGGGTTCTAACCTGTTGCCT (site CGGTCATCTAG)
assigned_category: yes (1)

sequence_input: GACTTGACTTGGGTTCTAACCTGTTGCCT (site GACTTGTCTAG)
assigned_category: no (0)

sequence_input: CTGTATACTTGGGTTCTAACCTGTTGCCA (site CTATATACTTG)
assigned_category: no (0)

sequence_input: ACAAAACCTTGGGTTCTAACCTGTTGCCT (site ACAAAACCTAG)
assigned_category: no (0)

sequence_input: TATTGGACTTGGGTTCTAACCTGTTGCAC (site TATTGGACTCT)
assigned_category: no (0)

sequence_input: ATGTCGTCTTGGGTTCTAACCTGTTGCCT (site ATGTCGTCTAG)
assigned_category: yes (1)

sequence_input: GTCAAACCTTGGGTTCTAACCTGTTGCTG (site GTCAATCCTCA)
assigned_category: no (0)

sequence_input: TCGCACACTTGGGTTCTAACCTGTTGCTG (site TAGCACACTCG)
assigned_category: no (0)

sequence_input: GACTTGTCTTGGGTTCTAACCTGTTGCCT (site GACTTGACTAG)
assigned_category: no (0)

sequence_input: GTCGGAGCTTGGGTTCTAACCTGTTGCTG (site GTCGGAGCTCA)
assigned_category: yes (1)

sequence_input: GTCGGAGCTTGGGTTCTAACCTGTTGCCG (site GTCGGAGCTCT)
assigned_category: yes (1)

sequence_input: ACATCTACTTGGGTTCTAACCTGTTGCTA (site ACTTCTACTTA)
assigned_category: no (0)

sequence_input: TGTAAGACTTGGGTTCTAACCTGTTGCAG (site TGTAAGACTCT)
assigned_category: yes (1)

sequence_input: TCATTAGCTTGGGTTCTAACCTGTTGCCG (site GGGCATCCTAT)
assigned_category: no (0)

sequence_input: ATTACTACTTGGGTTCTAACCTGTTGCCT (site AATACTACTAG)
assigned_category: no (0)

sequence_input: GTTTAGTCTTGGGTTCTAACCTGTTGCCT (site GTTTAGTCTAG)
assigned_category: yes (1)

* * *

# test_method_notes: recombinant UMI read abundance after kanamycin selection (control-corrected) (log10(CPM+1)); higher = more efficient recombination; extreme values may be limits of the assay; sequences stand for … in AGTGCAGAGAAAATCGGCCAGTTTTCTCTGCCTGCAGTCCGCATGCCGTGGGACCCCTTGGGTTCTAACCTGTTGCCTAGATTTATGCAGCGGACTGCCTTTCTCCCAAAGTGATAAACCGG…AGGTTGGTTTCACT; site = the 11-nt donor

sequence_input: TCGGTATCATGGACCGGTTTTCCCGGTAATCCGTATTTGCA (site ACAGTATCTTG)
recombinant UMI read abundance (log10): 1.54
//
sequence_input: CCTTGCCCATGGACCGGTTTTCCCGGTAATCCGTATTTGAT (site GCTTGCCCTAT)
recombinant UMI read abundance (log10): 0.00408
//
sequence_input: GTAAGATCATGGACCGGTTTTCCCGGTAATCCGTATTTGGC (site GTAAGATCTGC)
recombinant UMI read abundance (log10): 2.74
//
sequence_input: CTCATATCATGGACCGGTTTTCCCGGTAATCCGTATTTGTC (site CACATATCTGA)
recombinant UMI read abundance (log10): 0.65
//
sequence_input: ACAGTTCCATGGACCGGTTTTCCCGGTAATCCGTATTTGAA (site ACAGTTCCTTT)
recombinant UMI read abundance (log10): 1.36
//
sequence_input: CAGCAACCATGGACCGGTTTTCCCGGTAATCCGTATTTGCA (site CAGCAACCTTG)
recombinant UMI read abundance (log10): 0
//
sequence_input: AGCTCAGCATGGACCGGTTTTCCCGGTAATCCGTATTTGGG (site AGATCAGCTCC)
recombinant UMI read abundance (log10): 0.0131
//
sequence_input: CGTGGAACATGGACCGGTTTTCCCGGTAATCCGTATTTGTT (site CGTGGATCTAA)
recombinant UMI read abundance (log10): 0.524
//
sequence_input: AAGGATGCATGGACCGGTTTTCCCGGTAATCCGTATTTGTG (site AAGGATGCTCA)
recombinant UMI read abundance (log10): 2.3
//
sequence_input: ACATATCCATGGACCGGTTTTCCCGGTAATCCGTATTTGAC (site ACAAATCCTGT)
recombinant UMI read abundance (log10): 0
//
sequence_input: GGGAGTTCATGGACCGGTTTTCCCGGTAATCCGTATTTGCA (site GGGAGTTCTTG)
recombinant UMI read abundance (log10): 1.13
//
sequence_input: CTTCTCTCATGGACCGGTTTTCCCGGTAATCCGTATTTGGA (site CTTCTCTCTTA)
recombinant UMI read abundance (log10): 0.0983
//
sequence_input: CCCTGCTCATGGACCGGTTTTCCCGGTAATCCGTATTTGGG (site CCCTCCTCTCC)
recombinant UMI read abundance (log10): 0.027
//
sequence_input: ATTGTTCCATGGACCGGTTTTCCCGGTAATCCGTATTTGGT (site ATTGTTCCTAC)
recombinant UMI read abundance (log10): 0
//
sequence_input: TTTCCAACATGGACCGGTTTTCCCGGTAATCCGTATTTGAA (site TTTCCAACTTT)
recombinant UMI read abundance (log10): 0.0166
//
sequence_input: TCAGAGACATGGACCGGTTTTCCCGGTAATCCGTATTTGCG (site TCAGTGACTCG)
recombinant UMI read abundance (log10): 0.0233
//
sequence_input: ATACTAACATGGACCGGTTTTCCCGGTAATCCGTATTTGGA (site ATACTAACTTC)
recombinant UMI read abundance (log10): 1.2
//
sequence_input: GGTTGGACATGGACCGGTTTTCCCGGTAATCCGTATTTGAC (site GCTTGGACTGT)
recombinant UMI read abundance (log10): 0
//
sequence_input: ACGTTCCCATGGACCGGTTTTCCCGGTAATCCGTATTTGTG (site ACGTTCCCTCA)
recombinant UMI read abundance (log10): 0.0247
//
sequence_input: GAATGGCCATGGACCGGTTTTCCCGGTAATCCGTATTTGGA (site GAATGGCCTTG)
recombinant UMI read abundance (log10): 0
//
sequence_input: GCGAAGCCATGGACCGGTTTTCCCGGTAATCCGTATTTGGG (site GGGAAGCCTCC)
recombinant UMI read abundance (log10): 0.0306
//
sequence_input: CGGGTTCCATGGACCGGTTTTCCCGGTAATCCGTATTTGTT (site CGGAATCCTAA)
recombinant UMI read abundance (log10): 0.00595
//
sequence_input: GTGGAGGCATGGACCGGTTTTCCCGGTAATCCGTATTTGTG (site GGGGAGGCTCA)
recombinant UMI read abundance (log10): 0
//
sequence_input: GTAGTCCCATGGACCGGTTTTCCCGGTAATCCGTATTTGCG (site GTAGTCCCTCG)
recombinant UMI read abundance (log10): 0.791
//
sequence_input: GGCAATCCATGGACCGGTTTTCCCGGTAATCCGTATTTGTA (site GGCAATCCTTT)
recombinant UMI read abundance (log10): 0
//
sequence_input: CCGGCCGCATGGACCGGTTTTCCCGGTAATCCGTATTTGCC (site CCGGCCGCTGG)
recombinant UMI read abundance (log10): 0
//
sequence_input: GTGGATGCATGGACCGGTTTTCCCGGTAATCCGTATTTGTG (site GTGGATGCTCA)
recombinant UMI read abundance (log10): 1.67
//
sequence_input: CCTAAGACATGGACCGGTTTTCCCGGTAATCCGTATTTGGC (site CCTAACACTGC)
recombinant UMI read abundance (log10): 0
//
sequence_input: GCGGAGCCATGGACCGGTTTTCCCGGTAATCCGTATTTGGG (site GCGCAGCCTCC)
recombinant UMI read abundance (log10): 0
//
sequence_input: CGCTTGGCATGGACCGGTTTTCCCGGTAATCCGTATTTGGA (site CACTTGGCTTC)
recombinant UMI read abundance (log10): 0.361
//
sequence_input: CTAGTGTCATGGACCGGTTTTCCCGGTAATCCGTATTTGAC (site CTAGTTTCTGT)
recombinant UMI read abundance (log10): 0
//
sequence_input: AGAAAGTCATGGACCGGTTTTCCCGGTAATCCGTATTTGCA (site AGGAAGACTTG)
recombinant UMI read abundance (log10): 0
//
sequence_input: CACTGCTCATGGACCGGTTTTCCCGGTAATCCGTATTTGCC (site CACTGCTCTGG)
recombinant UMI read abundance (log10): 2.93
//
sequence_input: CGCCGTACATGGACCGGTTTTCCCGGTAATCCGTATTTGCC (site CGCCGTACTCG)
recombinant UMI read abundance (log10): 0.114
//
sequence_input: GCACATGCATGGACCGGTTTTCCCGGTAATCCGTATTTGGA (site GCACATGCTTC)
recombinant UMI read abundance (log10): 1.05
//
sequence_input: ATGATCTCATGGACCGGTTTTCCCGGTAATCCGTATTTGCG (site ATGATCTCTCG)
recombinant UMI read abundance (log10): 3.11
